unfolding enthalpy (van 't Hoff) for assorted variants
B1: Cytochrome b5, P00171 (parent)
chain: MAEESSKAVKYYTLEEIQKHNNSKSTWLILHYKVYDLTKFLEEHPGGEEVLREQAGGDATENFEDVGHSTDARELSKTFIIGELHPDDRSKITKPSESIITTIDSNPSWWTNWLIPAISALFVALIYHLYTSEN

variants of: B1; settings: Bos taurus; pH 7; Thermal; Absorbance; Sodium phosphate 100 mM; structure 1CYO; whole UniProt chain shown
Recorded endpoint: unfolding enthalpy (van 't Hoff) (kcal/mol)

1. MAEESSKAVKYYTLEEIQKHNNSKSTWLILHYKVYDLTKFLEEHPGGEEVLREQAGGDATENFEDEGHSTDARELSKTFIIGELHPDDRSKITKPSESIITTIDSNPSWWTNWLIPAISALFVALIYHLYTSEN [V66E]; 93.2
2. MAEESSKAVKYYTLEEIQKHNNSKSTWLILHYKVYDLTKFLEEHPGGEEVLREQAGGDATENFEDHGHSTDARELSKTFIIGELHPDDRSKITKPSESIITTIDSNPSWWTNWLIPAISALFVALIYHLYTSEN [V66H]; 88.2
3. MAEESSKAVKYYTLEEIQKHNNSKSTWLILHYKVYDLTKFLEEHPGGEEVLREQAGGDATENFEDKGHSTDARELSKTFIIGELHPDDRSKITKPSESIITTIDSNPSWWTNWLIPAISALFVALIYHLYTSEN [V66K]; 87
4. MAEESSKAVKYYTLEEIQKHNNSKSTWLILHYKVYDLTKFLEEHPGGEEVLREQAGGDATENFEDYGHSTDARELSKTFIIGELHPDDRSKITKPSESIITTIDSNPSWWTNWLIPAISALFVALIYHLYTSEN [V66Y]; 91.3
